Entries and their Kd
molecular target: His6-BosR (Borrelia burgdorferi B31, UniProt O51592 2-176); assay: fluorescence anisotropy

binder	Kd
FPospD (dsDNA) DNA 1: ATAATTGATATTAAAATATAATTGAT DNA 2: ATCAATTATATTTTAATATCAATTAT	0.262 µM
FPospAB (dsDNA) DNA 1: TAATCTTATAATATAATTATACTT DNA 2: AAGTATAATTATATTATAAGATTA	0.222 µM
